# assay.target: SARS-CoV-2 (WT) Spike RBD Protein (His Tag) (SARS-CoV-2 ancestral (Wuhan-Hu-1), UniProt P0DTC2)
readout.label: binding result

>>> reported_result("BD55-5259 (antibody, V domains shown) VH: QITLKESGPTLVKPTQTLTLTCTFSGFSLTMPEVGVAWVRQPPGKALEWLALIYGDDNKRYSPSLESRLTITKDSSKNQVVLTMTNLDSVDTATYYCARRKFLWDSDPVAFDYWGLGTLVIVSS VL: DIVMTQTPLSLPVTLGQPASISCRSSQSLVHIDGNIYLSWLQQRPGQPPRLLIYKISNRFSGVPDRFSGSGSGTDFTLKISRVEAEDVGVYYCMQATQFPHEMYTFGQGTKLEIR")
"binds"
>>> reported_result("BD55-5164 (antibody, V domains shown) VH: QLQLQESGPGLVKPSETLSLTCIVSRGSISSSSYFWAWVRQAPGKGLEWIGTIDYTGNTHYNTSLKSRVTISVDTSKNQFSLRLRSVTAADTALYFCSRQSAPPWGSSWGDYWGRGTLVTVSS VL: DIQMTQSPSSLSASVGDRVTISCQASQDISNYLNWYHQTPGKAPILLIFDASNLEAGVPSRFSGSGSGRHFSFTISSLQPEDTGTYYCQQYANLPALTFGGGTKVDIK")
"binds"
>>> reported_result("BD55-4662 (antibody, V domains shown) VH: QVQLQESGPGLVKPSETLSLTCTVSGASISSYYWTWIRQPPGKGLEWIGYIYNSGSTDYSPRGSTNYSPSLESRVTISVDTSKNQFSLKLSSVTAADTAVYHCARHPWTEMATYRSAYYFDSWGQGTLVTVSS VL: QSALTQPASVSGSPGQSITISCTGTTSDVGAYNHVSWYQQHPGKAPNLMIYDVSERPSGVSDRFSASKSGNTASLTISGLQAEDEADYYCCSYAGRSTWMFGGGTKLTVL")
"binds"
